meta.source: the NIST ThermoML archive (doi:10.1021/je700670k)

Documented mass density across a set of compounds
Details: 313.15 K; 5000 kPa; Liquid; Vibrating tube method
± gives the expanded uncertainty stated by the source.

[
  {
    "compound": "CCn1cc[n+](C)c1.O=S(=O)([O-])C(F)(F)F [1-ethyl-3-methylimidazolium trifluoromethanesulfonate]",
    "mass density": "1364.1 ± 12 kg/m3"
  },
  {
    "compound": "CCC[N+]1(C)CCCC1.O=S(=O)([N-]S(=O)(=O)C(F)(F)F)C(F)(F)F",
    "mass density": "1422.5 ± 12 kg/m3"
  },
  {
    "compound": "CCC[n+]1cccc(C)c1.O=S(=O)([N-]S(=O)(=O)C(F)(F)F)C(F)(F)F",
    "mass density": "1438 ± 12 kg/m3"
  },
  {
    "compound": "CCC[N+]1(C)CCCCC1.O=S(=O)([N-]S(=O)(=O)C(F)(F)F)C(F)(F)F",
    "mass density": "1401 ± 12 kg/m3"
  },
  {
    "compound": "CCCC[N+]1(C)CCCC1.O=S(=O)([N-]S(=O)(=O)C(F)(F)F)C(F)(F)F",
    "mass density": "1393.3 ± 12 kg/m3"
  }
]
